target: Beta-secretase 1 (Homo sapiens)
Sequence (P56817 whole entry): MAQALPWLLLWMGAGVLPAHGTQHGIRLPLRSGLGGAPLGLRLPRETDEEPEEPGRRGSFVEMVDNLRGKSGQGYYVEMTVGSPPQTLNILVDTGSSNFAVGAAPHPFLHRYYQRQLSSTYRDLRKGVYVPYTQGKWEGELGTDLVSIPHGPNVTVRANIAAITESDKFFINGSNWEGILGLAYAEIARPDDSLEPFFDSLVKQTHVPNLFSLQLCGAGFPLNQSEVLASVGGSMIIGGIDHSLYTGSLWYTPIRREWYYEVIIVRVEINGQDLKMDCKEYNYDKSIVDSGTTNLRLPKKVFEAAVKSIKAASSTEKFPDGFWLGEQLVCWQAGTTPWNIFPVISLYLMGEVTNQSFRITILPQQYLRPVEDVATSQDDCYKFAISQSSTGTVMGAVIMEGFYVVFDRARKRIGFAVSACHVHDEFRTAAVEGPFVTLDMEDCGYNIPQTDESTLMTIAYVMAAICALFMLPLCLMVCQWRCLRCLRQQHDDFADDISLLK
Would you kindly list pIC50 for each of these compounds?
One number for each entry, as −log10 of the molar value.

In the examples that follow, each entry is paired with its recorded pIC50.
O=C(Cn1nc(-c2ccccc2)c(-c2ccccc2)nc1=O)Nc1ccc(F)cc1 6.16
Cc1ccccc1NC(=O)Cn1nc(-c2ccccc2)c(-c2ccccc2)nc1=O 6.13
N#Cc1ccccc1NC(=O)Cn1nc(-c2ccccc2)c(-c2ccccc2)nc1=O 5.83

Dear reader, for each entry below, please note its pIC50.
1. O=C(Cn1nc(-c2ccccc2)c(-c2ccccc2)nc1=O)Nc1ccc(Br)cc1
2. O=C(Cn1nc(-c2ccccc2)c(-c2ccccc2)nc1=O)Nc1ccccc1Cl
3. O=C(Cn1nc(-c2ccccc2)c(-c2ccccc2)nc1=O)Nc1ccc(Cl)cc1
4. COc1cc(NC(=O)Cn2nc(-c3ccccc3)c(-c3ccccc3)nc2=O)cc(OC)c1OC
5. O=C(Cn1nc(-c2ccccc2)c(-c2ccccc2)nc1=O)Nc1ccccc1[N+](=O)[O-]
6. O=C(Cn1nc(-c2ccccc2)c(-c2ccccc2)nc1=O)Nc1ccc([N+](=O)[O-])cc1Cl

Output:
1. 5.73
2. 6.22
3. 5.72
4. 6.19
5. 6.04
6. 5.74

Dear reader, for each entry below, please note its pIC50.
1. O=C(Cn1nc(-c2ccccc2)c(-c2ccccc2)nc1=O)Nc1cc(Br)cc(Br)c1
2. O=C(Cn1nc(-c2ccccc2)c(-c2ccccc2)nc1=O)Nc1cccc(Cl)c1

Output:
1. 5.90
2. 5.84

Dear reader, for each entry below, please note its pIC50.
1. N#Cc1cccc(NC(=O)Cn2nc(-c3ccccc3)c(-c3ccccc3)nc2=O)c1
2. O=C(Cn1nc(-c2ccccc2)c(-c2ccccc2)nc1=O)Nc1ccccc1O
3. O=C(Cn1nc(-c2ccccc2)c(-c2ccccc2)nc1=O)Nc1cccc([N+](=O)[O-])c1
4. COc1cc(NC(=O)Cn2nc(-c3ccccc3)c(-c3ccccc3)nc2=O)cc(OC)c1
5. O=C(Cn1nc(-c2ccccc2)c(-c2ccccc2)nc1=O)Nc1ccc(O)cc1
6. O=C(Cn1nc(-c2ccccc2)c(-c2ccccc2)nc1=O)Nc1ccc(F)cc1F

Output:
1. 5.96
2. 6.02
3. 5.90
4. 6.27
5. 5.79
6. 5.84

Input: For the compound shown here, O=C(Cn1nc(-c2ccccc2)c(-c2ccccc2)nc1=O)Nc1ccc([N+](=O)[O-])cc1 , give the reported pIC50.
Output: 5.88

----------
test: Toxicity in wildtype Oregon R-positive Drosophila assessed as cell viability in gut at 50 uM by MTT assay relative to control; type: tissue-based; conditions: read-out: Activity
propertyLabel: viability at 50 µM (%)
Answers are plain numbers, in %.

Input: For the compound shown here, COc1cc(NC(=O)Cn2nc(-c3ccccc3)c(-c3ccccc3)nc2=O)cc(OC)c1 , give the reported viability at 50 µM.
Output: 38

----------
molecular target: Acetylcholinesterase (Homo sapiens, UniProt P22303); assay: Inhibition of human erythrocyte AChE using acetylthiocholine iodide as substrate preincubated for 30 mins followed by substrate addition by DTNB based Ellman's colorimetric method
Sequence (P22303 whole entry): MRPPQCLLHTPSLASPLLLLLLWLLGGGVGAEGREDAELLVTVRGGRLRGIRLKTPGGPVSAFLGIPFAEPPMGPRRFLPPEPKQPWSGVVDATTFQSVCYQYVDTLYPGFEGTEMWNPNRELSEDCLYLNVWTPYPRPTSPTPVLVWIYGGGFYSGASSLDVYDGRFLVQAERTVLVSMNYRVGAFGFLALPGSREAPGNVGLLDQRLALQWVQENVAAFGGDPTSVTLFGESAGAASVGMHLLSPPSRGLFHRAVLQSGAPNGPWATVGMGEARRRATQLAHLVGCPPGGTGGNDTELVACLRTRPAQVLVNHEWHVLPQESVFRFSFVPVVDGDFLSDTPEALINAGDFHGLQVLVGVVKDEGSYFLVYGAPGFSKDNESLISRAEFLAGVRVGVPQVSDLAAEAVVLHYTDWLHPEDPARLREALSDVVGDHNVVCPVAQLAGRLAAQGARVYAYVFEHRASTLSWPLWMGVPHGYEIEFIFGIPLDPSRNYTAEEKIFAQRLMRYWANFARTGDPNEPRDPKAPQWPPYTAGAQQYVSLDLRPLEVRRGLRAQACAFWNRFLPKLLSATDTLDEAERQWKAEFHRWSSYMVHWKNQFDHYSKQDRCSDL
propertyLabel: IC50 (µM)
Numbers only, in µM.

In the examples that follow, each entry is paired with its recorded IC50.
COc1cc(NC(=O)Cn2nc(-c3ccccc3)c(-c3ccccc3)nc2=O)cc(OC)c1 0.486
COc1cc(NC(=O)Cn2nc(-c3ccccc3)c(-c3ccccc3)nc2=O)cc(OC)c1OC 0.708
N#Cc1cccc(NC(=O)Cn2nc(-c3ccccc3)c(-c3ccccc3)nc2=O)c1 1.25
O=C(Cn1nc(-c2ccccc2)c(-c2ccccc2)nc1=O)Nc1cccc(Cl)c1 1.16

Dear reader, for each entry below, please note its IC50.
1. O=C(Cn1nc(-c2ccccc2)c(-c2ccccc2)nc1=O)Nc1ccccc1[N+](=O)[O-]
2. O=C(Cn1nc(-c2ccccc2)c(-c2ccccc2)nc1=O)Nc1ccc(Cl)cc1
3. Cc1ccccc1NC(=O)Cn1nc(-c2ccccc2)c(-c2ccccc2)nc1=O
4. O=C(Cn1nc(-c2ccccc2)c(-c2ccccc2)nc1=O)Nc1cc(Br)cc(Br)c1
5. O=C(Cn1nc(-c2ccccc2)c(-c2ccccc2)nc1=O)Nc1ccc(F)cc1F

Output:
1: 0.734; 2: 1.41; 3: 0.953; 4: 0.772; 5: 1.16

----------
Would you kindly list Papp at 18 h for each of these compounds?
test: Permeability of compound in PBS at pH 7.4 incubated for 18 hrs by PAMPA-BBB assay
Give bare numbers, in ×10⁻⁶ cm/s.

COc1cc(NC(=O)Cn2nc(-c3ccccc3)c(-c3ccccc3)nc2=O)cc(OC)c1 5.64

Now look at this entry.
Input: For the compound shown here, COc1cc(NC(=O)Cn2nc(-c3ccccc3)c(-c3ccccc3)nc2=O)cc(OC)c1OC , give the reported Papp at 18 h.
Output: 5.81

----------
assay: AUC (0 to 8 hrs) in male Wistar rat at 10 mg/kg, po measured after 72 hrs by HPLC analysis; format: ADME, organism-based; conditions: in vivo
propertyLabel: AUC(0-t) at 72 h (ng·h/mL)
Numbers only, in ng·h/mL.

Input: For the compound shown here, COc1cc(NC(=O)Cn2nc(-c3ccccc3)c(-c3ccccc3)nc2=O)cc(OC)c1 , give the reported AUC(0-t) at 72 h.
Output: 1140

----------
experiment: Acute toxicity in Wistar rat assessed as maximum tolerated dose administered orally for 14 days; settings: in vivo, route po, time 14 day
propertyLabel: MTD at 336 h (mg/kg)
Give bare numbers, in mg/kg.

Input: For the compound shown here, COc1cc(NC(=O)Cn2nc(-c3ccccc3)c(-c3ccccc3)nc2=O)cc(OC)c1 , give the reported MTD at 336 h.
Output: 1000

----------
target: Acetylcholinesterase (Homo sapiens, UniProt P22303)
propertyLabel: pKd
Answers are plain numbers, as −log10 of the molar value.

Input: For the molecule shown here, COc1cc(NC(=O)Cn2nc(-c3ccccc3)c(-c3ccccc3)nc2=O)cc(OC)c1 , give the reported pKd.
Output: 6.39

----------
molecular target: UniProtKB Q13627
pIC50: −log10 of the molar value.
propertyLabel: pIC50

In the examples that follow, each entry is paired with its recorded pIC50.
O=C(Cn1nc(-c2ccccc2)c(-c2ccccc2)nc1=O)Nc1cccc([N+](=O)[O-])c1 < 5.00
O=C(Cn1nc(-c2ccccc2)c(-c2ccccc2)nc1=O)Nc1cccc(Cl)c1 < 5.00
O=C(Cn1nc(-c2ccccc2)c(-c2ccccc2)nc1=O)Nc1ccccc1O < 5.00
N#Cc1cccc(NC(=O)Cn2nc(-c3ccccc3)c(-c3ccccc3)nc2=O)c1 < 5.00
Cc1ccccc1NC(=O)Cn1nc(-c2ccccc2)c(-c2ccccc2)nc1=O < 5.00

Dear reader, for each entry below, please note its pIC50.
1. O=C(Cn1nc(-c2ccccc2)c(-c2ccccc2)nc1=O)Nc1ccc(F)cc1
2. O=C(Cn1nc(-c2ccccc2)c(-c2ccccc2)nc1=O)Nc1ccccc1[N+](=O)[O-]
3. COc1cc(NC(=O)Cn2nc(-c3ccccc3)c(-c3ccccc3)nc2=O)cc(OC)c1

Output:
["< 5.00", "< 5.00", "< 5.00"]

----------
test: Cmax in male Wistar rat at 10 mg/kg, po measured after 72 hrs by HPLC analysis; assay type: ADME, organism-based; conditions: in vivo
propertyLabel: Cmax (ng/mL)
One number for each entry, in ng/mL.

Input: For the compound shown here, COc1cc(NC(=O)Cn2nc(-c3ccccc3)c(-c3ccccc3)nc2=O)cc(OC)c1 , give the reported Cmax.
Output: 355

----------
biological target: Acetylcholinesterase (Homo sapiens); test: Inhibition of human erythrocyte AChE using acetylthiocholine iodide as substrate preincubated for 30 mins followed by substrate addition by DTNB based Ellman's colorimetric method
Would you kindly list pIC50 for each of these compounds?
Give bare numbers, as −log10 of the molar value.

In the examples that follow, each entry is paired with its recorded pIC50.
O=C(Cn1nc(-c2ccccc2)c(-c2ccccc2)nc1=O)Nc1cccc([N+](=O)[O-])c1 5.95
O=C(Cn1nc(-c2ccccc2)c(-c2ccccc2)nc1=O)Nc1ccc(O)cc1 5.94
O=C(Cn1nc(-c2ccccc2)c(-c2ccccc2)nc1=O)Nc1ccccc1O 6.12
O=C(Cn1nc(-c2ccccc2)c(-c2ccccc2)nc1=O)Nc1ccc([N+](=O)[O-])cc1Cl 6.16
O=C(Cn1nc(-c2ccccc2)c(-c2ccccc2)nc1=O)Nc1ccc(Br)cc1 6.03
N#Cc1ccccc1NC(=O)Cn1nc(-c2ccccc2)c(-c2ccccc2)nc1=O 5.73
O=C(Cn1nc(-c2ccccc2)c(-c2ccccc2)nc1=O)Nc1ccccc1Cl 6.14
O=C(Cn1nc(-c2ccccc2)c(-c2ccccc2)nc1=O)Nc1ccc([N+](=O)[O-])cc1 5.97

Input: For the compound shown here, O=C(Cn1nc(-c2ccccc2)c(-c2ccccc2)nc1=O)Nc1ccc(F)cc1 , give the reported pIC50.
Output: 6.08

----------
assay: Toxicity in wildtype Oregon R-positive Drosophila assessed as cell viability in gut at 5 uM by MTT assay relative to control; assay type: tissue-based; settings: read-out: Activity
propertyLabel: viability at 5 µM (%)
Give bare numbers, in %.

Input: For the compound shown here, COc1cc(NC(=O)Cn2nc(-c3ccccc3)c(-c3ccccc3)nc2=O)cc(OC)c1 , give the reported viability at 5 µM.
Output: 97

Data origin: ChEMBL document CHEMBL5500364
